In this section, each of the compounds is paired with its reported log10 of Ki.
# target_of_assay: recombinant human NK3 receptor (Homo sapiens)
# Construct: expressed in transfected cells; host or cells: HEK293 cells, transient expression; membranes
# Sequence (P29371 1-465): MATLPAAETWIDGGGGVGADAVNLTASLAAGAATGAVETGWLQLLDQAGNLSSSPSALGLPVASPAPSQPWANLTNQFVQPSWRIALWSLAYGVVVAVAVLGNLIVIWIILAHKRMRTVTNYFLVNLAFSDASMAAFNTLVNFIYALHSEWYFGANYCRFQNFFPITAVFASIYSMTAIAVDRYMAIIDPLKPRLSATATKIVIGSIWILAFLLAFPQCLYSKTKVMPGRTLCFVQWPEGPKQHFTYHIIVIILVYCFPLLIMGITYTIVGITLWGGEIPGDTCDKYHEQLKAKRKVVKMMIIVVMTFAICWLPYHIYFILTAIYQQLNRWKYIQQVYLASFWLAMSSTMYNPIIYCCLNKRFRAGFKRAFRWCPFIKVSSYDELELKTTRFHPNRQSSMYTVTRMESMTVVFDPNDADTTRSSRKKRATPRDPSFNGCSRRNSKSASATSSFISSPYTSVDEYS
# protocol_details: [3H]SR142801 competition binding assay
endpoint_name: log10 of Ki (log10 of the value in nM)

compound: CN(C(=O)Oc1ccc(F)cc1)[C@@H]1CN(C(=O)C2CCN(c3ccncn3)CC2)C[C@H]1c1ccc(Cl)cc1
target_of_assay: recombinant human NK3 receptor (Homo sapiens)
log10 of Ki: 0.08
//
compound: CN(C(=O)Oc1ccc(F)cc1)[C@@H]1CN(C(=O)C2CCNC2)C[C@H]1c1ccc(Cl)cc1 (some centres unmarked)
target_of_assay: recombinant human NK3 receptor (Homo sapiens)
log10 of Ki: 1.99
//
compound: CN(C(=O)Oc1ccccc1F)[C@@H]1CN(C(=O)C2CCN(c3ccc(C#N)cn3)CC2)C[C@H]1c1ccc(Cl)cc1
target_of_assay: recombinant human NK3 receptor (Homo sapiens)
log10 of Ki: 0.15
//
compound: CN(C(=O)Oc1ccc(F)cc1)[C@@H]1CN(C(=O)C2CCN(C(=O)C3(C#N)CC3)CC2)C[C@H]1c1ccc(Cl)cc1
target_of_assay: recombinant human NK3 receptor (Homo sapiens)
log10 of Ki: 0.30
//
compound: CN(C(=O)Oc1ccc(C#N)c(F)c1)[C@@H]1CN(C(=O)C2CCN(c3ccc(C#N)cn3)CC2)C[C@H]1c1ccc(Cl)cc1
target_of_assay: recombinant human NK3 receptor (Homo sapiens)
log10 of Ki: 0.04
